I'd appreciate it if you could supply GI50 of drug values for the items below.
Tested on: A498
Test: GI50 of drug in presence of dasatinib; higher = less potent
Settings: treatment: drug + dasatinib (fixed dose, not stated); 5 days
Just the number in µM, nothing appended.

Query: Entry Cc1ccc([N+](=O)[O-])cc1S(=O)(=O)N(C)/N=C/c1cnc2ccc(Br)cn12.Cl [PIK-75] + Cc1nc(Nc2ncc(C(=O)Nc3c(C)cccc3Cl)s2)cc(N2CCN(CCO)CC2)n1 : reported GI50 of drug = ?
Result: 0.0656

Query: Entry CCn1cc(-c2ccnc3[nH]c(-c4cccc(CN(C)C)c4)cc23)c(-c2ccc(NC(=O)N(C)C)cc2)n1 + Cc1nc(Nc2ncc(C(=O)Nc3c(C)cccc3Cl)s2)cc(N2CCN(CCO)CC2)n1 : reported GI50 of drug = ?
Result: 2.17

Query: Entry O=C(O)c1ccc(Nc2ncc3c(n2)-c2ccc(Cl)cc2C(c2c(F)cccc2F)=NC3)cc1 [MLN8054] + Cc1nc(Nc2ncc(C(=O)Nc3c(C)cccc3Cl)s2)cc(N2CCN(CCO)CC2)n1 : reported GI50 of drug = ?
Result: 4.23

Query: Entry Cc1n[nH]c2ccc(-c3cncc(OC[C@@H](N)Cc4ccccc4)c3)cc12 + Cc1nc(Nc2ncc(C(=O)Nc3c(C)cccc3Cl)s2)cc(N2CCN(CCO)CC2)n1 : reported GI50 of drug = ?
Result: 1.26

Query: Entry Cc1ccc(C(=O)Nc2cccc(C(F)(F)F)c2)cc1Nc1nc(-c2cccnc2)nc2c1cnn2C [NVP-BHG712] + Cc1nc(Nc2ncc(C(=O)Nc3c(C)cccc3Cl)s2)cc(N2CCN(CCO)CC2)n1 : reported GI50 of drug = ?
Result: 4.42

Query: Entry CN1CCN(C2CCN(C(=O)Nc3cc(Oc4ccc(NC(=O)C5(C(=O)Nc6ccc(F)cc6)CC5)c(F)c4)ccn3)CC2)CC1 [Golvatinib (E7050)] + Cc1nc(Nc2ncc(C(=O)Nc3c(C)cccc3Cl)s2)cc(N2CCN(CCO)CC2)n1 : reported GI50 of drug = ?
Result: 9.52

Query: Entry COC(=O)Nc1ccc(-c2nc(N3CCOCC3)c3cnn(C4CCN(Cc5cccnc5)CC4)c3n2)cc1 [WYE-687] + Cc1nc(Nc2ncc(C(=O)Nc3c(C)cccc3Cl)s2)cc(N2CCN(CCO)CC2)n1 : reported GI50 of drug = ?
Result: 2.28

Query: Entry COc1ncc(-c2ccc3nccc(-c4ccnnc4)c3c2)cc1NS(=O)(=O)c1ccc(F)cc1F + Cc1nc(Nc2ncc(C(=O)Nc3c(C)cccc3Cl)s2)cc(N2CCN(CCO)CC2)n1 : reported GI50 of drug = ?
Result: 0.168

Query: Entry O=C1NC(=O)/C(=C/c2ccc3nccc(-c4ccncc4)c3c2)S1 + Cc1nc(Nc2ncc(C(=O)Nc3c(C)cccc3Cl)s2)cc(N2CCN(CCO)CC2)n1 : reported GI50 of drug = ?
Result: 0.383

Query: Entry COc1ccc(-c2cc3c(C)nc(N)nc3n([C@H]3CC[C@H](OCCO)CC3)c2=O)cn1 + Cc1nc(Nc2ncc(C(=O)Nc3c(C)cccc3Cl)s2)cc(N2CCN(CCO)CC2)n1 : reported GI50 of drug = ?
Result: 0.491

Query: Entry CNC(=O)c1cc(Oc2ccc(NC(=O)Nc3cc(C(C)(C)C)nn3-c3ccc4ncccc4c3)c(F)c2)ccn1 [DCC-2036 (Rebastinib)] + Cc1nc(Nc2ncc(C(=O)Nc3c(C)cccc3Cl)s2)cc(N2CCN(CCO)CC2)n1 : reported GI50 of drug = ?
Result: 4.42
